# EXPERIMENTAL TARGET: T1, USP7 Ubl123 E759A (human, UniProt Q93009 535-889, E759A)
# T1 construct: USP7, human, residues 535-889 with E759A; Synthesized (Genscript), in pET15b; also called Ubl123 mutant E759A; source: E. coli BL21(DE3)mgk, purified (nickel-NTA, SEC)
# T1 sequence (Q93009 535-889 E759A): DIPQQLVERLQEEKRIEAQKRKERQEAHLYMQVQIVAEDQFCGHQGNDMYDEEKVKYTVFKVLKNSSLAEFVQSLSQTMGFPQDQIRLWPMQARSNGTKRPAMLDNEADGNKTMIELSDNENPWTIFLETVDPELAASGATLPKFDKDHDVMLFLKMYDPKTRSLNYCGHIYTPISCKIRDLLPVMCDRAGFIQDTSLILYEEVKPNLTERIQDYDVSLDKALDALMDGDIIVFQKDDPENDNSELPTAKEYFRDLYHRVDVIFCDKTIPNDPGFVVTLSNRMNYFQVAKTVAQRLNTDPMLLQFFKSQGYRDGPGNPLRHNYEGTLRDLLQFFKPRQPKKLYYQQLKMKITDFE
# RUN DESCRIPTION: fluorescence polarisation; USP7 proteins titrated (0 to 200 μM) into 40 nM N-terminally FITC-labeled peptide; 0.01% Triton X-100, 150 mM NaCl, 20 mM Tris pH 7.5
# CONDITIONS: both partners purified
pKd: −log10 of the molar value. Primed or numbered codes have the meaning given here. No end group written: not given here. FITC′ = fluorescein isothiocyanate label
QUANTITY: pKd

[[record]]
binder = "{FITC′}-GPRKCARKTRH [FITC-labeled ICP0 peptide]"
value = "< 4.00"

